B1: Neutrophil cytosol factor 2, residues 456 to 514; numbered along this chain, P19878 (parent)
chain: LKKGSQVEALFSYEATQPEDLEFQEGDIILVLSKVNEEWLEGECKGKVGIFPKVFVEDC

Variants of: B1
Experiment: abundance fitness (aPCA) (normalised: wild type 0, dead -1); higher = more abundant; growth selection in yeast, the domain comes from the species named
Settings: Homo sapiens
value-type: abundance fitness
Keep the answer to the number alone.

Some variants with recorded abundance fitness:
E38C :: -0.702
I29T :: -0.497
V48A :: 0.008
L21G :: -0.369
V31F :: -0.354
L40S :: -0.729
V35A :: -0.074
Q6K :: 0.157
E8N :: 0.524
E41M :: 0.275

Now look at this entry.
**Q:** Find the recorded abundance fitness belonging to "F55D" and report it.
**A:** -0.409
